Recorded IC50 by entry
targetUnderTest: BACE (Homo sapiens (Human))
Sequence (P56817 46-501, species assumed): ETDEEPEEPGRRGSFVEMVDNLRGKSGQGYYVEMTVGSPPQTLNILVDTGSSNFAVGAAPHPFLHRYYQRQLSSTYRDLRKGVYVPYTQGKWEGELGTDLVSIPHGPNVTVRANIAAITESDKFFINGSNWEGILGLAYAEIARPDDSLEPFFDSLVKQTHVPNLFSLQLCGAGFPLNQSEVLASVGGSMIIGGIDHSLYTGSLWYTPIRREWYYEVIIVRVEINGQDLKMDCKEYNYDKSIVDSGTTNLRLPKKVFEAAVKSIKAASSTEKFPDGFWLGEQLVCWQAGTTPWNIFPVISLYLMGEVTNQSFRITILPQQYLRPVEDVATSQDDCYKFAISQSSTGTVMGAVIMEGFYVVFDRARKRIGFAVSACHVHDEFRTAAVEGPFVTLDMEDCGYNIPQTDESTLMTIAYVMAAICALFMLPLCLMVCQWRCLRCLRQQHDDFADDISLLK
protocolDetails: In vitro BACE cell-based assay (Aβ40 in conditioned medium, sandwich ELISA)
reportedProperty: IC50 (µM)

1) NC1=N[C@@](c2cc(NC(=O)c3ncc(Br)cn3)ccc2F)(C(F)F)[C@H]2C[C@H]2O1 :: 0.015
2) Cc1cc(OC(F)F)cnc1C(=O)Nc1cc(F)c(Cl)c([C@]2(CF)N=C(N)O[C@H]3C[C@H]32)c1 (racemic) [Example 153] :: 0.0762
3) NC1=N[C@](CF)(c2cc(Nc3nccc4cc(Cl)cnc34)ccc2Cl)[C@H]2C[C@H]2O1 :: 0.0656
4) COc1cnc(C(=O)Nc2cc(C)c(F)c([C@@]3(C(F)F)N=C(N)O[C@@H]4C[C@@H]43)c2)cn1 :: 0.014

====

targetUnderTest: UniProtKB P56817
protocolDetails: In vitro enzymatic BACE FRET assay
Type: biochemical
experimentalConditions: read-out: BACE1 Enzyme assay IC50
Response field label takes true when IC50 is strictly below 100 nM and false in all other cases.

1) Cc1cc(C(F)F)cnc1C(=O)Nc1ccc(F)c([C@@]2(C(F)F)N=C(N)O[C@@H]3C[C@@H]32)c1 :: true
2) CC(C)c1cc(C#N)cnc1C(=O)Nc1ccc(F)c([C@@]2(C(F)F)N=C(N)O[C@@H]3C[C@@H]32)c1 :: false
3) NC1=N[C@@](c2cc(NC(=O)c3ncc(Cl)cc3F)ccc2F)(C(F)F)[C@H]2C[C@H]2O1 :: true
4) COc1cnc2c(Nc3ccc(F)c([C@@]4(C)N=C(N)O[C@@H]5C[C@@H]54)c3)nccc2c1 :: false
5) Cc1cc(C(F)(F)F)cnc1C(=O)Nc1ccc(Cl)c([C@@]2(C(F)F)N=C(N)O[C@@H]3C[C@@H]32)c1 :: true
6) C[C@]1(c2nc(NC(=O)c3ccc(C#N)cn3)ccc2F)N=C(N)O[C@@H]2C[C@@H]21 :: false
7) COc1ccc(C(=O)Nc2ccc(F)c([C@@]3(C(F)F)N=C(N)O[C@@H]4C[C@@H]43)c2)nc1 :: true
8) Cc1cc(C(F)F)cnc1C(=O)Nc1cnc(F)c([C@@]2(CF)N=C(N)O[C@@H]3C[C@@H]32)c1 :: false
9) NC1=N[C@@](c2cc(NC(=O)c3cnc(OCC4CC4)cn3)ccc2F)(C(F)F)[C@H]2C[C@H]2O1 :: true
10) C#CCOc1cnc(C(=O)Nc2ccc(Cl)c([C@@]3(C(F)F)N=C(N)O[C@@H]4C[C@@H]43)c2)cn1 :: true
11) NC1=N[C@@](c2cc(NC(=O)c3cc(Cl)cs3)ccc2F)(C(F)F)[C@H]2C[C@H]2O1 :: false
12) NC1=N[C@@](c2cc(N3Cc4cc(Cl)cnc4C3=O)ccc2F)(C(F)F)[C@H]2C[C@H]2O1 :: false
13) C#CCOc1cnc(C(=O)Nc2cc(F)c(F)c([C@@]3(C(F)F)N=C(N)O[C@@H]4C[C@@H]43)c2)cn1 [Example 111] :: false
14) Cc1c(C(=O)Nc2ccc(F)c([C@@]3(C(F)F)N=C(N)O[C@@H]4C[C@@H]43)c2)nc2ccc(Cl)cn12 :: false
15) NC1=N[C@@](c2cc(NC(=O)c3cnc(OCc4cocn4)cn3)ccc2F)(C(F)F)[C@H]2C[C@H]2O1 :: true
16) NC1=N[C@](c2cc(NC(=O)c3ccc(Cl)cn3)cnc2F)(C(F)F)[C@@H]2C[C@@H]2O1 (racemic) :: false
17) Cc1cc(C#N)cnc1C(=O)Nc1cc(F)c(F)c([C@@]2(CF)N=C(N)O[C@@H]3C[C@@H]32)c1 (stereo in doubt) [Example 50] :: false
18) C#CCOc1cnc(C(=O)Nc2ccc(Cl)c([C@]3(CF)N=C(N)O[C@H]4C[C@H]43)c2)cn1 :: false
19) NC1=N[C@@](c2cc(NC(=O)c3ncc(Cl)cc3CO)ccc2F)(C(F)F)[C@H]2C[C@H]2O1 :: true

====

targetUnderTest: Beta Secretase enzyme (BACE) (Homo sapiens (Human), UniProt P56817)
Sequence (P56817 46-501): as the sequence (P56817 46-501, species assumed) above
protocolDetails: In vitro enzymatic BACE FRET assay
Assay type: biochemical
experimentalConditions: read-out: BACE1 Enzyme assay IC50
pIC50: −log10 of the molar value.
# maps each entry to its pIC50
reportedProperty: pIC50

1. C[C@H](C(=O)Nc1ccc(F)c([C@@]2(C(F)F)N=C(N)O[C@@H]3C[C@@H]32)c1)c1ccc(Cl)cc1 (mixture of isomers) :: < 4.40
2. NC1=N[C@@](c2cc(NC(=O)C3CCOCC3)ccc2F)(C(F)F)[C@H]2C[C@H]2O1 :: < 4.40
3. NC1=N[C@@](c2cc(NC[C@@H]3C[C@H]3c3ccccc3)ccc2F)(C(F)F)[C@H]2C[C@H]2O1 :: 4.95

====

targetUnderTest: Beta Secretase enzyme (BACE) (Homo sapiens (Human))
protocolDetails: In vitro enzymatic BACE FRET assay
Assay type: biochemical
experimentalConditions: read-out: BACE1 Enzyme assay IC50
Cut-off 50 nM on IC50: below means true, at or above means false.

1. COc1cnc(C(=O)Nc2ccc(F)c([C@@]3(CF)N=C(N)O[C@@H]4C[C@@H]43)c2)cn1 :: false
2. NC1=N[C@@](c2cc(NC(=O)c3ccc(Br)cn3)ccc2F)(C(F)F)[C@H]2C[C@H]2O1 :: true
3. Cc1cccnc1C(=O)Nc1ccc(F)c([C@@]2(C(F)F)N=C(N)O[C@@H]3C[C@@H]32)c1 :: false
4. COC[C@H](C)NC(=O)c1ccc(F)c([C@@]2(C(F)F)N=C(N)O[C@@H]3C[C@@H]32)c1 :: false
5. C[C@]1(c2cc(NC(=O)c3ccc(Cl)cn3)cnc2F)N=C(N)O[C@@H]2C[C@@H]21 :: false

====

targetUnderTest: Beta Secretase enzyme (BACE) (Homo sapiens (Human))
protocolDetails: In vitro enzymatic BACE FRET assay
Type: biochemical
experimentalConditions: read-out: BACE1 Enzyme assay IC50
The reader will find reported IC50 values listed item by item below.
reportedProperty: IC50

1. COc1cnc(C(=O)Nc2ccc(C)c([C@@]3(C(F)F)N=C(N)O[C@@H]4C[C@@H]43)c2)cn1 :: 314 nM
2. NC1=N[C@](CF)(c2cc(NC(=O)c3nn(C(F)F)cc3Cl)ccc2F)[C@H]2C[C@H]2O1 :: 23.2 nM
3. Cc1cc(Cl)cnc1C(=O)Nc1ccc(Cl)c([C@@]2(CF)N=C(N)O[C@@H]3C[C@@H]32)c1 :: 37.3 nM
4. NC1=N[C@](CF)(c2cc(NC(=O)c3ncc(Cl)cc3CF)ccc2Cl)[C@H]2C[C@H]2O1 :: 25.2 nM
5. C=CCOc1cnc(C(=O)Nc2ccc(F)c([C@@]3(C(F)F)N=C(N)O[C@@H]4C[C@@H]43)c2)cn1 :: 48 nM
6. NC1=N[C@@](c2cc(NC(=O)C3=CCCCC3)ccc2F)(C(F)F)[C@H]2C[C@H]2O1 :: 24400 nM
7. Cc1cc(OC(F)F)cnc1C(=O)Nc1ccc(Cl)c(C2(C(F)F)N=C(N)O[C@@H]3C[C@@H]32)c1 (some centres unmarked) :: 90.8 nM
8. NC1=N[C@@](c2cc(Nc3ncnc4cc(Cl)cnc34)ccc2F)(C(F)F)[C@H]2C[C@H]2O1 :: 63.9 nM

====

targetUnderTest: Cathepsin D (Cat D) (Homo sapiens (Human), UniProt P07339)
Sequence (P07339 65-412, species assumed): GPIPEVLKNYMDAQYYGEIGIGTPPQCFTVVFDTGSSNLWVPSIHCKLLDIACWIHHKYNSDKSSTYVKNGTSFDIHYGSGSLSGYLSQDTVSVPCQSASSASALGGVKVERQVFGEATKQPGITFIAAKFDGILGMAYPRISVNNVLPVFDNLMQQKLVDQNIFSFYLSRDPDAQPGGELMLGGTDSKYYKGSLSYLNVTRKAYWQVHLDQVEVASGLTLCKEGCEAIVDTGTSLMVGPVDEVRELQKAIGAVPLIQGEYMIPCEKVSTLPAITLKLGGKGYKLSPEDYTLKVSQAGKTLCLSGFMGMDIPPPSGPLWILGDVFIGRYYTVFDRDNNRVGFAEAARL
protocolDetails: In vitro enzymatic Cathepsin D (Cat D) FRET assay
Assay type: biochemical
experimentalConditions: read-out: CatD IC50
pIC50: −log10 of the molar value.
Recorded measurements of pIC50, one per entry
reportedProperty: pIC50

1. COc1cnc2c(Nc3ccc(F)c([C@]4(C)N=C(N)O[C@H]5C[C@H]54)c3)nccc2c1 [Example 339] :: < 3.40
2. COc1ccc(C(=O)Nc2ccc(F)c([C@]3(CF)N=C(N)O[C@H]4C[C@H]43)c2F)nc1 [Example 78] :: < 3.40
3. NC1=N[C@@](c2cc(NC(=O)c3ncc(Cl)cc3Cl)ccc2Cl)(C(F)F)[C@H]2C[C@H]2O1 [Example 211] :: < 3.40

====

targetUnderTest: Beta Secretase enzyme (BACE) (Homo sapiens (Human))
protocolDetails: In vitro enzymatic BACE FRET assay
Format: biochemical
experimentalConditions: read-out: BACE1 Enzyme assay IC50
Where a name gives a salt, the structure may show the parent alone.
Flag rule - IC50 less than 90 nM flags T; the remaining entries get F.

1. Cc1cnc(C(=O)Nc2ccc(F)c([C@@]3(C(F)F)N=C(N)O[C@@H]4C[C@@H]43)c2)c(C)c1 :: F
2. Cc1nc(OCC(F)(F)F)cnc1C(=O)Nc1cc(F)c(Cl)c([C@@]2(CF)N=C(N)O[C@@H]3C[C@@H]32)c1 :: F
3. NC1=N[C@](CF)(c2cc(Nc3nccc4cc(Cl)cnc34)cc(F)c2F)[C@@H]2C[C@@H]2O1 :: F
4. CC#CCOc1cnc(C(=O)Nc2ccc(F)c([C@@]3(C(F)F)N=C(N)O[C@@H]4C[C@@H]43)c2)cn1 [Example 96, trifluoroacetate] :: T
5. COc1cnc(C(=O)Nc2ccc(F)c([C@@]3(C(F)F)N=C(N)O[C@@H]4C[C@@H]43)c2)c(OC)n1 :: F
6. CC#CCOc1cnc(C(=O)Nc2ccc(F)c([C@]3(C)N=C(N)O[C@H]4C[C@H]43)c2)c(C)c1 :: F
7. NC1=N[C@@](c2cc(Nc3nccc4cc(Cl)cnc34)ccc2F)(C(F)F)[C@H]2C[C@H]2O1 :: T
8. NC1=N[C@@](c2cc(NC(=O)c3cnc(OCc4cscn4)cn3)ccc2F)(C(F)F)[C@H]2C[C@H]2O1 :: T
9. NC1=N[C@@](c2cc(Nc3ncc(F)c4cc(C#CC5CC5)cnc34)ccc2F)(C(F)F)[C@H]2C[C@H]2O1 :: T
10. COc1cnc(C(=O)Nc2cc(C)c(F)c([C@@]3(C(F)F)N=C(N)O[C@@H]4C[C@@H]43)c2)cn1 :: T
11. NC1=N[C@@](c2cc(NC(=O)c3ccc(OCc4nccs4)cn3)ccc2F)(C(F)F)[C@H]2C[C@H]2O1 :: T
12. NC1=N[C@@](c2cc(NC(=O)c3ncc(Cl)cc3Cl)ccc2Cl)(C(F)F)[C@H]2C[C@H]2O1 :: T
13. NC1=N[C@@](c2cc(NC(=O)c3ccc(OCc4ncco4)cn3)ccc2F)(C(F)F)[C@H]2C[C@H]2O1 :: T
14. COCc1cc(C#N)cnc1C(=O)Nc1ccc(Cl)c([C@@]2(CF)N=C(N)O[C@@H]3C[C@@H]32)c1 :: T
15. NC1=N[C@@](c2cc(NC(=O)c3cnc(OCc4cncs4)cn3)ccc2F)(C(F)F)[C@H]2C[C@H]2O1 :: T
16. COc1ccc(C(=O)Nc2ccc(Cl)c([C@@]3(C(F)F)N=C(N)O[C@@H]4C[C@@H]43)c2)nc1 :: T
17. NC1=N[C@@](CF)(c2cc(NC(=O)c3ccc(Cl)cn3)ccc2Cl)[C@@H]2CC2O1 (stereo partly shown) :: F
18. NC1=N[C@@](c2cc(NC(=O)CC(F)(F)F)ccc2F)(C(F)F)[C@H]2C[C@H]2O1 :: F
19. Cc1cc(NC(=O)c2ncc(Cl)cc2F)cc([C@@]2(C(F)F)N=C(N)O[C@@H]3C[C@@H]32)c1F :: T
